Attribution: patent US20110118447A1

- target system: binding partner of C5A (XPA23)
- protocol: Biacore
Could you mark each record met if its fold difference in affinity vs original falls strictly under 0.8 fold, and not met if it equals or exceeds it?

Query: Say whether its fold difference in affinity vs original is strictly beneath 0.8 fold. Entry: C5A (XPA23) VH F35T (antibody, V domains shown) VH: EVQLLESGGGLVQPGGSLRLSCAASGFTFSKYFMTWVRQAPGKGLEWVSVISPSGGMTRYADSVKGRFTISRDNSKNTLYLQMNSLRAEDTAVYYCARVGYGGNSDYWGQGTLVTVSS VL: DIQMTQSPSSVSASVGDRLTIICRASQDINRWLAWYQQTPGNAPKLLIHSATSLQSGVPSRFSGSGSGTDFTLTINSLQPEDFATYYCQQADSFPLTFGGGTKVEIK
Response: met

Query: Is it true that fold difference in affinity vs original reported for C5A (XPA23) VH M57L (antibody, V domains shown) VH: EVQLLESGGGLVQPGGSLRLSCAASGFTFSKYFMFWVRQAPGKGLEWVSVISPSGGLTRYADSVKGRFTISRDNSKNTLYLQMNSLRAEDTAVYYCARVGYGGNSDYWGQGTLVTVSS VL: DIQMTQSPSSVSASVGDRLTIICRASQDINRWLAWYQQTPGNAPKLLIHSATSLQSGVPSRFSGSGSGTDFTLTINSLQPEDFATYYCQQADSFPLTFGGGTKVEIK is less than 0.8 fold?
Response: met

Query: Lab note: fold difference in affinity vs original threshold 0.8 fold. Does this binder come in strictly under it? C5A (XPA23) VH T58G (antibody, V domains shown) VH: EVQLLESGGGLVQPGGSLRLSCAASGFTFSKYFMFWVRQAPGKGLEWVSVISPSGGMGRYADSVKGRFTISRDNSKNTLYLQMNSLRAEDTAVYYCARVGYGGNSDYWGQGTLVTVSS VL: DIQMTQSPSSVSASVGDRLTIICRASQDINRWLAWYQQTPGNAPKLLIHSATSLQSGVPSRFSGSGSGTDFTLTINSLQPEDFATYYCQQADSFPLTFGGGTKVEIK
Response: not met

Query: Consider C5A (XPA23) VH G55I (antibody, V domains shown) VH: EVQLLESGGGLVQPGGSLRLSCAASGFTFSKYFMFWVRQAPGKGLEWVSVISPSIGMTRYADSVKGRFTISRDNSKNTLYLQMNSLRAEDTAVYYCARVGYGGNSDYWGQGTLVTVSS VL: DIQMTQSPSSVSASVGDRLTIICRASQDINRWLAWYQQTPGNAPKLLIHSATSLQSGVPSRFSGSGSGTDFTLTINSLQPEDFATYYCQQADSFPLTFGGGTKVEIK . Does its fold difference in affinity vs original lie strictly below 0.8 fold?
Response: not met

Query: Take the binder C5A (XPA23) VH F35I (antibody, V domains shown) VH: EVQLLESGGGLVQPGGSLRLSCAASGFTFSKYFMIWVRQAPGKGLEWVSVISPSGGMTRYADSVKGRFTISRDNSKNTLYLQMNSLRAEDTAVYYCARVGYGGNSDYWGQGTLVTVSS VL: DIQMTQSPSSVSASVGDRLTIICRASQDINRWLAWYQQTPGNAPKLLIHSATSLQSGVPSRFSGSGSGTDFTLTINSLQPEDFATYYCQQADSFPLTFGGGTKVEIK and say whether its fold difference in affinity vs original is less than 0.8 fold.
Response: not met
